This section presents compounds with their documented IC50 values.
- target_of_assay: PI3Kα (p110α/p85α) (Homo sapiens)
- Construct: GST (N)
- Sequence (P42336 whole entry): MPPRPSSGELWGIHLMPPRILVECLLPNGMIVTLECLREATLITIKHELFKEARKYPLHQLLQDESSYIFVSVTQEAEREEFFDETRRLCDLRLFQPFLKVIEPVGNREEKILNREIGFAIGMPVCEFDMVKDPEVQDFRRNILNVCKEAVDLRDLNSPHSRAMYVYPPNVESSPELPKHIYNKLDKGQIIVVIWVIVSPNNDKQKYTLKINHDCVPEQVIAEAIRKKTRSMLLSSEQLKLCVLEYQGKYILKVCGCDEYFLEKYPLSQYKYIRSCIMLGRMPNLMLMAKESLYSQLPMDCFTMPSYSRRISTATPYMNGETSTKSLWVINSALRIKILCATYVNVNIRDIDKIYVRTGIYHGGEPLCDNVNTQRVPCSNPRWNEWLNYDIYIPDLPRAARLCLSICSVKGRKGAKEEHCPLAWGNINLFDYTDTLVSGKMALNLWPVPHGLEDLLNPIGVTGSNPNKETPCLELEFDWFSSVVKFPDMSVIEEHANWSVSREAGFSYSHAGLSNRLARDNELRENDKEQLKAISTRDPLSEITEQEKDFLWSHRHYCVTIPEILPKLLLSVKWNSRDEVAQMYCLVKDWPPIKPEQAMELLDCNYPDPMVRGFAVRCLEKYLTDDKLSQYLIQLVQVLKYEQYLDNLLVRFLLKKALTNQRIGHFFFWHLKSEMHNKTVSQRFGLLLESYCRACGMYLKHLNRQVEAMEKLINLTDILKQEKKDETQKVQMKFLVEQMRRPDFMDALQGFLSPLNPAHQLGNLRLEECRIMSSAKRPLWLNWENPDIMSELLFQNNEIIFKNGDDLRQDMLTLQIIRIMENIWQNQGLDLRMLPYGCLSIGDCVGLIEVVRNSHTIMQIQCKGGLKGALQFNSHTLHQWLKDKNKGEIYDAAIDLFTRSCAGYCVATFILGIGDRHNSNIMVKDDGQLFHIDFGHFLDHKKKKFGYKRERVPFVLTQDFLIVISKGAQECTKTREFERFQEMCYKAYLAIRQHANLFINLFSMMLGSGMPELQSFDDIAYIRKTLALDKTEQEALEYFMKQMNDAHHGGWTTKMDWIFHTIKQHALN
- Sequence (P27986 whole entry partner): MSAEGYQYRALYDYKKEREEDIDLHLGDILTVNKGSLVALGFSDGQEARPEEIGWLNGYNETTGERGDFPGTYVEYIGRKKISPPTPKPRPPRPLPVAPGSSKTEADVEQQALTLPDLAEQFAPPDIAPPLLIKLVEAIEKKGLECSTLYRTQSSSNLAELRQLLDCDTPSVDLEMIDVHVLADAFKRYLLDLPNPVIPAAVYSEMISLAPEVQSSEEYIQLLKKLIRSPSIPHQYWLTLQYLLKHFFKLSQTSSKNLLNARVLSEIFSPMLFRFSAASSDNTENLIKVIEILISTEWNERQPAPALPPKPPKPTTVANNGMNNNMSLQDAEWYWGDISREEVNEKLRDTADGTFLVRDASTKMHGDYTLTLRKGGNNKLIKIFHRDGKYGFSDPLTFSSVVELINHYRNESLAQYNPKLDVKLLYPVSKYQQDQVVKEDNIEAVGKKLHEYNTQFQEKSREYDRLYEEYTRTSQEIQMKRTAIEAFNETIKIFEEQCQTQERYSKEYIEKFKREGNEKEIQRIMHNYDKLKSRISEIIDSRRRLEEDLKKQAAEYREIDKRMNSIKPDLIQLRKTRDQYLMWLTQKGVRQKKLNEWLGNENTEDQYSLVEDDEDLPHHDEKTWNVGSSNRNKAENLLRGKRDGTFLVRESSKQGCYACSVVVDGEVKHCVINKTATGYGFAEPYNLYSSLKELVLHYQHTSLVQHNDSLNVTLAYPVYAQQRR
- assay_protocol: PI3Kα ADP-Glo assay
- reported_conditions: 20 μM PIP2, 10 μM ATP, 30 minutes
measured_attribute: IC50

CN(C)CCN(Cc1cc2nc(-c3cccc4[nH]ncc34)nc(N3CCOCC3)c2s1)c1ncc(C(=O)NO)cn1 [Compound 95]    < 100 nM
CN(Cc1cc2nc(-c3ccc4[nH]c(=O)[nH]c4c3)nc(N3CCOCC3)c2s1)c1ncc(C(=O)NO)cn1 [Compound 186]    > 10000 nM
CN(CCCC(=O)NO)Cc1cc2nc(-c3cccc4[nH]ncc34)nc(N3CCOCC3)c2s1 [Compound 101]    100 to 1000 nM
Nc1ccc(-c2nc(N3CCOCC3)c3sc(Nc4ncc(C(=O)NO)cn4)cc3n2)cc1 [Compound 273]    < 100 nM

* * *

- target_of_assay: PI3Kδ (p110δ/p85α) (Homo sapiens)
- Construct: GST (N)
- Sequence (O00329 whole entry, one chain of several): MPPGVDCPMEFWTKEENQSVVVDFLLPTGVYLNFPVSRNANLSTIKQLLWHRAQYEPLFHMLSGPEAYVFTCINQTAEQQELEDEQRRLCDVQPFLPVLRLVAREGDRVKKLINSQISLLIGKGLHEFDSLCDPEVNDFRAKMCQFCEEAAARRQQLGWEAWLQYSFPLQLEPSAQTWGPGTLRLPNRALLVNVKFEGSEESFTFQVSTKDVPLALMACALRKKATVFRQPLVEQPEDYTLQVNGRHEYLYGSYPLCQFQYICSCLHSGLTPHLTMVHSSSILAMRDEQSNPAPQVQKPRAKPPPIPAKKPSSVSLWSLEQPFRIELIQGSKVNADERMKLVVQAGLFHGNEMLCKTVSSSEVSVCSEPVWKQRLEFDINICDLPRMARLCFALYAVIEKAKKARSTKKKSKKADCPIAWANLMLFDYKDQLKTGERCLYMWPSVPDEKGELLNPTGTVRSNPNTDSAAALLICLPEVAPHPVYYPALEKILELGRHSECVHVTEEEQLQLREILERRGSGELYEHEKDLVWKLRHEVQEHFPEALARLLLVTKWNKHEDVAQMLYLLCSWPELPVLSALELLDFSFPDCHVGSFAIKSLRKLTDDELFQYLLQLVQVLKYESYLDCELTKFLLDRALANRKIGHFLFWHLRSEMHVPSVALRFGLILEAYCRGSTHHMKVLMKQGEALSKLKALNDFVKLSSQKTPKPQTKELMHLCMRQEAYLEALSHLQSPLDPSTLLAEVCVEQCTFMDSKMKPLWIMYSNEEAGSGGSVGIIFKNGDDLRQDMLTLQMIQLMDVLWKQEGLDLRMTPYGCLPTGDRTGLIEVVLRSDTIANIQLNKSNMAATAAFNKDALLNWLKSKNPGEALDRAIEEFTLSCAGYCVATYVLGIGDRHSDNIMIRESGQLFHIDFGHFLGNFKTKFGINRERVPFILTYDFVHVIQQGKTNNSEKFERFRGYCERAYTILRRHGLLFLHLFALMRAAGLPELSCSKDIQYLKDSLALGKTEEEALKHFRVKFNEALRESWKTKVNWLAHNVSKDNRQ
- assay_protocol: PI3Kδ ADP-Glo assay
- reported_conditions: 20 μM PIP2, 10 μM ATP, 90 minutes
This section presents compounds with their documented IC50 values.
measured_attribute: IC50

O=C(NO)c1cnc(N2CCN(Cc3cc4nc(-c5cccc6[nH]ncc56)nc(N5CCOCC5)c4s3)CC2)nc1 [Compound 14]    100 to 1000 nM
O=C(NO)c1cnc(NCc2cc3nc(-c4cccc5[nH]ncc45)nc(N4CCOCC4)c3s2)nc1 [Compound 53]    < 100 nM
CNc1ccc(-c2nc(N3CCOCC3)c3sc(CN(C)c4ncc(C(=O)NO)cn4)cc3n2)cn1 [Compound 111]    < 100 nM
CN(Cc1cc2nc(-c3cccc4[nH]ncc34)nc(N3CCOCC3)c2s1)c1ncc(C(=O)NO)cn1 [Compound 54]    < 100 nM

* * *

This section presents molecules with their documented pIC50 values.
- System: HDACs (HeLa cell nuclear extracts)
- assay_protocol: HDAC enzymatic activity, Biomol Color de Lys system
- Format: biochemical
- reported_conditions: 1 hour, 25° C.
pIC50: −log10 of the molar value.
measured_attribute: pIC50

CC(O)c1ccc(F)c(-c2nc(N3CCOCC3)c3sc(CN(C)c4ncc(C(=O)NO)cn4)cc3n2)c1 (stereo not drawn)    > 7.00
CNc1ccc(-c2nc(N3CCOCC3)c3sc(CNCc4nc5cc(/C=C/C(=O)NO)ccc5n4C)cc3n2)cn1    6.00 to 7.00
COC(=O)CN(Cc1cc2nc(-c3cccc4[nH]ncc34)nc(N3CCOCC3)c2s1)c1ncc(C(=O)NO)cn1    > 7.00
COc1ncc(-c2nc(N3CCOCC3)c3sc(C(C)(C)Nc4ncc(C(=O)NO)cn4)cc3n2)cn1    > 7.00
O=C(/C=C/c1ccc(S(=O)(=O)Nc2cc3nc(-c4cccc5[nH]ncc45)nc(N4CCOCC4)c3s2)cc1)NO    > 7.00
CN(Cc1cc2nc(-c3cccc(CN)c3)nc(N3CCOCC3)c2s1)c1ncc(C(=O)NO)cn1    > 7.00
CNc1ccc(-c2nc(N3CCOCC3)c3sc(CN(C)c4ncc(C(=O)NO)cn4)cc3n2)cn1    > 7.00
CN(Cc1cc2nc(-c3cccc4[nH]c(=O)[nH]c34)nc(N3CCOCC3)c2s1)c1ncc(C(=O)NO)cn1    > 7.00
CN(Cc1cc2nc(-c3ccc(C(N)=O)cc3)nc(N3CCOCC3)c2s1)c1ncc(C(=O)NO)cn1    > 7.00
NCCN(Cc1cc2nc(-c3cccc4[nH]ncc34)nc(N3CCOCC3)c2s1)c1ncc(C(=O)NO)cn1    > 7.00
COc1ccc(-c2nc(N3CCOCC3)c3sc(NS(=O)(=O)c4ccc(/C=C/C(=O)NO)cc4)cc3n2)cn1    > 7.00
CN(Cc1cc2nc(-c3cccc(O)c3)nc(N3CCOCC3)c2s1)c1ncc(C(=O)NO)cn1    > 7.00
CN(Cc1cc2nc(-c3cccc4[nH]ncc34)nc(N3CCOCC3)c2s1)CC1CCN(c2ncc(C(=O)NO)cn2)CC1    6.00 to 7.00
CCN(Cc1cc2nc(-c3ccc(N)cc3)nc(N3CCOCC3)c2s1)c1ncc(C(=O)NO)cn1    > 7.00
CCNc1ccc(-c2nc(N3CCOCC3)c3sc(CN(C)c4ncc(C(=O)NO)cn4)cc3n2)cc1    > 7.00
